- tested-on: human ICOS as used for the 'ICOS OD' read-out of Table 14 (human)
- Sequence (Q9Y6W8 whole entry): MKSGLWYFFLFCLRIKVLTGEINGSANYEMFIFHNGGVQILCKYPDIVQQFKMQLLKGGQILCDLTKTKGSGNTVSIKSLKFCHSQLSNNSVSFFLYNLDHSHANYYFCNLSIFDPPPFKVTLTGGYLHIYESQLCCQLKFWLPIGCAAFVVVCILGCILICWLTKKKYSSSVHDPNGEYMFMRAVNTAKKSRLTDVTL
- experiment-description: binding read as OD; format not described
For each entry below, report its ICOS OD parental ratio value.

ICOSL variant N52S/S130G/Y152C ECD-Fc fusion (Fc fusion, not shown: The AAA linker to it is left out) DTQEKEVRAMVGSDVELSCACPEGSRFDLNDVYVYWQTSESKTVVTYHIPQSSSLENVDSRYRNRALMSPAGMLRGDFSLRLFNVTPQDEQKFHCLVLSQSLGFQEVLSVEVTLHVAANFSVPVVSAPHGPSQDELTFTCTSINGYPRPNVCWINKTDNSLLDQALQNDTVFLNMRGLYDVVSVLRIARTPSVNIGCCIENVLLQQNLTVGSQTGNDIGERDKITENPVSTGEKNAAT | 0.19 ratio to WT ICOSL ECD-Fc
ICOSL variant F120S/Y152H/N201S ECD-Fc fusion (Fc fusion, not shown: C220S/R292C/N297G/V302C) and the AAA linker to it) DTQEKEVRAMVGSDVELSCACPEGSRFDLNDVYVYWQTSESKTVVTYHIPQNSSLENVDSRYRNRALMSPAGMLRGDFSLRLFNVTPQDEQKFHCLVLSQSLGFQEVLSVEVTLHVAANSSVPVVSAPHSPSQDELTFTCTSINGYPRPNVHWINKTDNSLLDQALQNDTVFLNMRGLYDVVSVLRIARTPSVNIGCCIESVLLQQNLTVGSQTGNDIGERDKITENPVSTGEKNAAT | 0.73 ratio to WT ICOSL ECD-Fc
ICOSL variant N52H/N57Y/Q100P ECD-Fc fusion (Fc fusion, not shown: no entry of the listing is held) DTQEKEVRAMVGSDVELSCACPEGSRFDLNDVYVYWQTSESKTVVTYHIPQHSSLEYVDSRYRNRALMSPAGMLRGDFSLRLFNVTPQDEQKFHCLVLSPSLGFQEVLSVEVTLHVAANFSVPVVSAPHSPSQDELTFTCTSINGYPRPNVYWINKTDNSLLDQALQNDTVFLNMRGLYDVVSVLRIARTPSVNIGCCIENVLLQQNLTVGSQTGNDIGERDKITENPVSTGEKNAAT | 1.83 ratio to WT ICOSL ECD-Fc

Field: next binder
[ask] What value of ICOS OD parental ratio has been recorded for this entry: ICOSL variant N52S/Y146C/Y152C ECD-Fc fusion (Fc fusion, not shown: a dimerising Fc or GST; small tags and cut ends) DTQEKEVRAMVGSDVELSCACPEGSRFDLNDVYVYWQTSESKTVVTYHIPQSSSLENVDSRYRNRALMSPAGMLRGDFSLRLFNVTPQDEQKFHCLVLSQSLGFQEVLSVEVTLHVAANFSVPVVSAPHSPSQDELTFTCTSINGCPRPNVCWINKTDNSLLDQALQNDTVFLNMRGLYDVVSVLRIARTPSVNIGCCIENVLLQQNLTVGSQTGNDIGERDKITENPVSTGEKNAAT
[reply] 1.47 ratio to WT ICOSL ECD-Fc

Just for reference, patent US20200040059A1 is where these values come from.
